Hey, just so you know, these numbers are from ChEMBL document CHEMBL3988442.

# System: Plasmodium falciparum
# experiment.notes: Calibr Malaria Delayed Death Assay SOP
# Format: functional, organism-based
# Set-up: scale not given: in the data most compounds retested in dose-response had high values
# experimental.context: concentration 4.99e-06 (unit not given; other assays of the set use mol/L)
In all, about 38,000 compounds went through this assay and about 1,200 (3.2%) showed an effect of 50% or more. The median lay at about -58%. What follows is part of a selection rich in strong results, with near analogues and random picks from the rest.
parameter: Percent Effect (%)
Numeric answer only, unit % assumed.

// known answers, use as guide
CN(C)CCO[C@H]1CN(C(=O)c2ccc(C#N)cc2)[C@@H]2COC[C@H]12 | -51.41
O=C1[C@H]2CC[C@H](CN(c3ncnc4ccsc34)C2)N1CC1CC1 | -91.86

Need Percent Effect, item CN1CCC2(CC1)CC(NC(=O)c1csnn1)c1ccccc1O2.O=C(O)C(F)(F)F (stereo unspecified) -14.05

Need Percent Effect, item CCN1CCC2(CC1)CC(NC(=O)c1c[nH]cn1)c1ccccc1O2 (stereo unspecified) -75.27

Need Percent Effect, item O=C(CSc1nnc2n1N=CN(c1ccccc1)C2)c1ccccc1 -130.4

Need Percent Effect, item Cc1ccc(NC2CCN(C(=O)COc3cccc(F)c3)CC2)nn1 -0.3434

* * *

compounds and their reported Percent Effect
# Test system: Plasmodium falciparum
# experiment.notes: Calibr Malaria Delayed Death Assay SOP
# Assay type: functional, organism-based
# Set-up: scale not given: in the data most compounds retested in dose-response had high values
# experimental.context: concentration 4.99e-06 (unit not given; other assays of the set use mol/L)
Screen size: about 38,000 compounds; about 1,200 (3.2%) showed an effect of 50% or more. The median lay at about -58%. Many of the other results were omitted from the sample, so strong results are more common in it than they were.
Numeric answer only, unit % assumed.

// known answers, use as guide
CCc1cnc(N)nc1N[C@@H](C)c1ncccc1C | 2.334
CCc1cnc(N)nc1NC(C)c1ccc(C)c(C)c1 (stereo not drawn) | 72.97
Cc1cccc(OCC(O)CNCc2c(C)nn(C)c2N(C)C)c1 (stereo not drawn) | 22.52
Cn1cnc2c1C(COCC1CC1)CN(c1ncccn1)C2.O=C(O)C(F)(F)F.O=C(O)C(F)(F)F (stereo not drawn) | -186
Cc1noc(C)c1CN1CC[C@H]2OCC[C@@]2(C(=O)NC2CCCC2)C1.O=C(O)C(F)(F)F | 8.677
CCN(CC)C(=O)N1CCN(Cc2cnc(C)nc2)[C@H]2CS(=O)(=O)C[C@H]21 | -158.8

Proceeding to the next compound to report its Percent Effect.
Need Percent Effect, item CC(=O)N1CCC2(CC1)CC(NC(=O)N(C)C)c1cc(C)ccc12 (stereo not drawn) -69.21

* * *

# Test system: Plasmodium falciparum
# experiment.notes: Calibr Malaria Delayed Death Assay SOP
# Type: functional, organism-based
# Set-up: scale not given: in the data most compounds retested in dose-response had high values
# experimental.context: concentration 4.99e-06 (unit not given; other assays of the set use mol/L)
Hit rate of the full screen: of about 38,000 compounds, about 1,200 (3.2%) showed an effect of 50% or more. The median lay at about -58%. What follows is part of a selection rich in strong results, with near analogues and random picks from the rest.
compounds and their reported Percent Effect
Numeric answer only, unit % assumed.

CCC(CO)N(Cc1ccsc1)Cc1cccc(O)c1 (centres undefined) | 67.4

Need Percent Effect, item CCC(CO)N(CC=C(C)C)Cc1ccsc1 (centres undefined) 20.66

Need Percent Effect, item O=C(c1ccoc1)N1CCC(Nc2cccnn2)CC1 -103.3

Need Percent Effect, item CNC(=O)C1CCN(S(C)(=O)=O)CC1 -158.4

Need Percent Effect, item CCn1cc(NS(=O)(=O)c2ccc(Br)s2)c(C(=O)NCC(C)C)n1 -19.45

Need Percent Effect, item Cc1nonc1C1CCCN1Cc1ccc(C(=O)Nc2nccs2)cc1 (centres undefined) -15.94

Need Percent Effect, item Cc1cc(C)cc(N2CCN(C(=O)C3CN(C)C(=O)N3)CC2=O)c1 (centres undefined) -59

Need Percent Effect, item COCCN1C(=O)CC[C@@H]2[C@H]1CCN2S(=O)(=O)c1cccs1 -44.47

Need Percent Effect, item CCc1ccsc1C(=O)N1CCCN(Cc2cnn(CC)c2)CC1 -131.2

Need Percent Effect, item N#Cc1ccc(F)c(CNC(=O)NC(CO)c2ccccc2)c1 (centres undefined) -103.2

Need Percent Effect, item NC(=O)C1CCN(c2ccc(C(=O)N3CCc4ccccc43)cn2)C1 (centres undefined) -37.49

Need Percent Effect, item CSc1ccccc1C(=O)N1C[C@@H](N(C)C)[C@H](c2ccc(C)cc2)C1 -25.73

Need Percent Effect, item CCSc1ncc(CN2CCC(O)(CN3CCOCC3)C(C)(C)C2)cn1 (centres undefined) 16.41

Need Percent Effect, item COc1cccc(N2C(=O)CC3(CCNCC3)C2=O)c1.Cl -133.6

Need Percent Effect, item Cc1cnn(CCNCc2nccn2CC(F)(F)F)c1 12.08

Need Percent Effect, item CCCS(=O)(=O)N1CCOC2(CCCN(Cc3ccccn3)C2)C1.O=C(O)C(F)(F)F (centres undefined) -25.77

Need Percent Effect, item Cc1nn(C)cc1CN1CCCCCC1c1ccccc1Cl (centres undefined) -108.4

Need Percent Effect, item COc1ncccc1CNC(=O)C1=NN(c2ccccc2)C(=O)CN1 -51.2

Need Percent Effect, item O=C(c1cc(-c2ccn(CC3CC3)n2)n2ccccc12)N1CCCO1 -90.15
